Each item that follows carries a reported pIC50.
Molecular target: Serine/threonine-protein kinase ATR (Homo sapiens)
Sequence (Q13535 whole entry): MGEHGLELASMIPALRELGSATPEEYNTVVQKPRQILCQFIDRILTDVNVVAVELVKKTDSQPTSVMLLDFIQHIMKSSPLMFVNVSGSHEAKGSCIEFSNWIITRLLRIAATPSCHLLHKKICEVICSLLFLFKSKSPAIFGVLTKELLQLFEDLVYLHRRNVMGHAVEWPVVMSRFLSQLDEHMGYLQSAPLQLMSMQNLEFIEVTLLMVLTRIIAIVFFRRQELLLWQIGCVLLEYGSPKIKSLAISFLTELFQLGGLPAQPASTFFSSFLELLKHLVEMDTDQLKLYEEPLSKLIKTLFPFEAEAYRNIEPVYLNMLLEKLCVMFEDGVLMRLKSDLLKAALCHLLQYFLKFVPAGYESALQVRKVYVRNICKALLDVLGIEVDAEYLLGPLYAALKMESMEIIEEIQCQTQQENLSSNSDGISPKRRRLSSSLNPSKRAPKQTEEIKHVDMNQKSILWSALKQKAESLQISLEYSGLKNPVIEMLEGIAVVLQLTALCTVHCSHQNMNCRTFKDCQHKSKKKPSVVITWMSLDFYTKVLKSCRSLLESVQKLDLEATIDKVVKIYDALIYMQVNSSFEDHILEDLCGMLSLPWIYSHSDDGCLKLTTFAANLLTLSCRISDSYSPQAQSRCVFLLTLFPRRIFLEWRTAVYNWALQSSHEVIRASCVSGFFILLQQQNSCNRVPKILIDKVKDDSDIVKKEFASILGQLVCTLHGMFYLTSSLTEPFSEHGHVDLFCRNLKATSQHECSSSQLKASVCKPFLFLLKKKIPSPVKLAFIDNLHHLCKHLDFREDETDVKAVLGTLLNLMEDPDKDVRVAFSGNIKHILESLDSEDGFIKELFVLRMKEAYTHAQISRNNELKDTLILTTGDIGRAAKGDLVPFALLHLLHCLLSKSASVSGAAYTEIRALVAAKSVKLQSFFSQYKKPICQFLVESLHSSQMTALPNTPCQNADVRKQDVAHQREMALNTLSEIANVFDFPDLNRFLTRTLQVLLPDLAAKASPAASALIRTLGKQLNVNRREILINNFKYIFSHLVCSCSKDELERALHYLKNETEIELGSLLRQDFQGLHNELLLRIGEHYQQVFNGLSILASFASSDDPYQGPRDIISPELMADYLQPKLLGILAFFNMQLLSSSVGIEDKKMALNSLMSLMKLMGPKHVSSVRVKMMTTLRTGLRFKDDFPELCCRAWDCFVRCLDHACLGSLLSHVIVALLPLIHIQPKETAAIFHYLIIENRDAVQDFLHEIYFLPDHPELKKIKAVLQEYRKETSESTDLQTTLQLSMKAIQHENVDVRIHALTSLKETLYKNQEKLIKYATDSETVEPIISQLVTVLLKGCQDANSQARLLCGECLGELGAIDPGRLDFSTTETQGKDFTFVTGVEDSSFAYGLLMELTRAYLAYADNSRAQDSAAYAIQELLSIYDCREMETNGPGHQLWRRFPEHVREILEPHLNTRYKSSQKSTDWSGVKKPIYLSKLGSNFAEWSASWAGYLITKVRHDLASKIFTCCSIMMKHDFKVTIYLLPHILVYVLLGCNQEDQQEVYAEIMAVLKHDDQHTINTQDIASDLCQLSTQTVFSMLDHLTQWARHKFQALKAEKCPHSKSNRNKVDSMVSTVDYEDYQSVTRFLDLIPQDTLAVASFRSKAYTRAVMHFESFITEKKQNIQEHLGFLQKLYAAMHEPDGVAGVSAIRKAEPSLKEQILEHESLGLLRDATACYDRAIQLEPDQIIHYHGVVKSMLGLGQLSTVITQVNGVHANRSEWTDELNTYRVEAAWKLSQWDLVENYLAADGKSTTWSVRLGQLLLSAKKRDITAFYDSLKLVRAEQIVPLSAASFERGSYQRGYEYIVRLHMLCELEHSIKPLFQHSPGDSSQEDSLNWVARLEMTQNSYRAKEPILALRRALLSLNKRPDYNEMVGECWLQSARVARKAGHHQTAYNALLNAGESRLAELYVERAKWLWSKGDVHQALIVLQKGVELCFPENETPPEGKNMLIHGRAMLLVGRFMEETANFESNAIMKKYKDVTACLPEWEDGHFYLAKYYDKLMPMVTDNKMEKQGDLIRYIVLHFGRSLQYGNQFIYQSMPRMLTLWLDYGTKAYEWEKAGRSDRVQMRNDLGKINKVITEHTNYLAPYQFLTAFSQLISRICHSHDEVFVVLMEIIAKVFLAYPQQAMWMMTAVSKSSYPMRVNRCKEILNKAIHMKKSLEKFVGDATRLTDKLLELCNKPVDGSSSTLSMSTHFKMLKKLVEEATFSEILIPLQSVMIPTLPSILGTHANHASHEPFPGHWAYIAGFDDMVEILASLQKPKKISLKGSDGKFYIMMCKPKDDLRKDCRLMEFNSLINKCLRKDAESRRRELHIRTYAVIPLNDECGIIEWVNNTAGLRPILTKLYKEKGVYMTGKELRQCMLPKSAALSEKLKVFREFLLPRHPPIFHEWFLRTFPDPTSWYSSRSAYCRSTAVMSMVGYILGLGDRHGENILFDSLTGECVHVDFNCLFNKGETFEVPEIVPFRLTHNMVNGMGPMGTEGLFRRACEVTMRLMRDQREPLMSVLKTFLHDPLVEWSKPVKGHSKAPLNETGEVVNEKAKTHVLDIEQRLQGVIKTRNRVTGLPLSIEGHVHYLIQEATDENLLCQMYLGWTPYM
Experiment: Inhibition of full length recombinant ATR after 24 hrs by radiometric phosphate incorporation assay
pIC50: −log10 of the molar value.

{"smiles-entry": "Nc1ncc(-c2ccc(C(=O)N3CCCC3)cc2)nc1C(=O)Nc1ccccc1", "qualifier-sign": "=", "pIC50": 7.27}
{"smiles-entry": "N#Cc1cccc(-c2cnc(N)c(C(=O)Nc3ccccc3)n2)c1", "qualifier-sign": "=", "pIC50": 6.40}
{"smiles-entry": "Nc1ncc(-c2cccc(O)c2)nc1C(=O)Nc1ccccc1", "qualifier-sign": "=", "pIC50": 6.27}
{"smiles-entry": "O=c1cc(-c2cccc3c2Sc2ccccc2S3)oc(N2CCOCC2)c1", "qualifier-sign": "<", "pIC50": 4.00}
{"smiles-entry": "Cc1cccc(-c2cnc(N)c(C(=O)Nc3ccccc3)n2)c1", "qualifier-sign": "=", "pIC50": 6.25}
{"smiles-entry": "N#Cc1ccccc1-c1cnc(N)c(C(=O)Nc2ccccc2)n1", "qualifier-sign": "=", "pIC50": 7.62}
{"smiles-entry": "Cc1ccccc1-c1cnc(N)c(C(=O)Nc2ccccc2)n1", "qualifier-sign": "=", "pIC50": 5.85}
